From: patent US20250340591A1

Record form. Attribute: ECmax; SRE-luciferase reporter. Fill in for each entry.
Target: T1, GPR39 (G protein coupled receptor 39) (UniProt O43194 1-453, limits assumed)
T1 sequence (looked up): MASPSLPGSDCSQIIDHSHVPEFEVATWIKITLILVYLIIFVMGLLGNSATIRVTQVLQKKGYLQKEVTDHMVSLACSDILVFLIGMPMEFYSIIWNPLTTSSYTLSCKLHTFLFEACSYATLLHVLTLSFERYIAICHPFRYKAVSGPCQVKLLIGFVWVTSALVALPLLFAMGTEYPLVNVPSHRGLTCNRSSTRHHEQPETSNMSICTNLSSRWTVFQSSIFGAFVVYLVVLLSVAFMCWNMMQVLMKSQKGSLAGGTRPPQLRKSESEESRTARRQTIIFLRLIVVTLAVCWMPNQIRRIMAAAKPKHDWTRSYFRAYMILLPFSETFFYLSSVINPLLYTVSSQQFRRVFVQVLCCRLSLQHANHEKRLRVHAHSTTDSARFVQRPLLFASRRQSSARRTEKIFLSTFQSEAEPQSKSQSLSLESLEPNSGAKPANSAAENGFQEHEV
Assay: cell-based or functional assay
Square brackets hold non-standard residues; d marks the D form. Ends that are not written are not given here. * marks the point of attachment. DAMP‑3 = 1,3-diphenethyl substitution on the histidine imidazole ring (1,3-diphenethyl-2,3-dihydro-1H-imidazol-4-yl side chain); dPhe(4-Cl) = N[C@H](Cc1ccc(Cl)cc1)C(=O)O; dPhe(4-Me) = Cc1ccc(C[C@@H](N)C(=O)O)cc1; Trt = c1ccc(C(c2ccccc2)(c2ccccc2)*)cc1; Benzhydryl = c1ccc(C(c2ccccc2)*)cc1; Octanoyl = CCCCCCCC(=O)*; SO3H = O=S(=O)(O)*

input: So what's the measured ECmax; SRE-luciferase reporter for this one? His(Trt)-Lys(Octanoyl)-Phe-OH [HKFY-49]
output: 18.3 -fold induction over basal

input: Try H(Trt)K(caproic)FYDQQARF (also: C-terminal Phe amide in IUPAC name, not in sequence formula) [HKFY-56] next.
output: 14.9 -fold induction over basal

input: Try [dH](Trt)K(Octanoyl)[dPhe(4-Me)]Y [HKFY-31] next.
output: 20.9 -fold induction over basal

input: Try H(Benzhydryl)K(Octanoyl)[dPhe(4-Me)]Y(SO3H) [HKFY-35] next.
output: 18.9 -fold induction over basal

input: Try H(DAMP‑3)K(Octanoyl)FY [HKFY-6] next.
output: 15 -fold induction over basal

input: Try [dH](Trt)K(Octanoyl)[dPhe(4-Cl)][dY] [HKFY-14] next.
output: 20.9 -fold induction over basal
